Values from ChEMBL document CHEMBL5634145

Target: Cytochrome P450 1A2 (Homo sapiens, UniProt P05177)
Sequence (P05177 whole entry): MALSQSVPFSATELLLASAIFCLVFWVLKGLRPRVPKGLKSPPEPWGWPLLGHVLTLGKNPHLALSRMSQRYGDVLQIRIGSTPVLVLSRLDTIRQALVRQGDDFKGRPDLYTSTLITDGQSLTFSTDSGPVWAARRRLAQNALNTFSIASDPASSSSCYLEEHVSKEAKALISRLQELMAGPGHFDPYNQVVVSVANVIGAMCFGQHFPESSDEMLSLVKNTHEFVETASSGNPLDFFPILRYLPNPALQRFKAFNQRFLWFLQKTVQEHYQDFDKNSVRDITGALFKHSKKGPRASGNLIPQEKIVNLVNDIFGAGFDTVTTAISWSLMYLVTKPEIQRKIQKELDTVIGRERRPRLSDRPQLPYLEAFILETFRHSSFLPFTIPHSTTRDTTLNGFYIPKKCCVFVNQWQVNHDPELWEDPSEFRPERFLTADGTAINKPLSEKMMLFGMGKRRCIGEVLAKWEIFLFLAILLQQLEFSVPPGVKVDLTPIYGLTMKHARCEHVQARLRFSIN
pIC50: −log10 of the molar value.
Endpoint label: pIC50

Req: For Cc1ncccc1C(=O)Nc1nc2cc(C(N)=O)ccc2n1CCCCNC(=O)OC(C)(C)C , what is its reported pIC50?
Resp: < 4.00
